Source: PubChem BioAssay (NCI)

- test.name: NCI Yeast Anticancer Drug Screen. Data for the wt1 strain (AID 149);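 further: 0% = growth of vehicle-treated wt1 cultures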
- settings: S. cerevisiae wt1 strain (SPY 50644) growth inhibition; at 33.0 µM; stronger effect = higher value
Compounds without any hit were thinned out: in the full panel of roughly 79,000, 15% have a hit.
assay.endpoint: growth inhibition (%)
Just the number please, in %, no unit attached.

Answered cases to consult:
compound	growth inhibition [%]
O=C(O)c1cccc(-c2c3ccc(=O)cc-3oc3cc(O)ccc23)c1	77
Cc1ccc(NN(NC(=O)OC(C)C)C(=O)OC(C)C)cc1	7
O=C1C=CC(=O)N1c1ccc2c(c1)Cc1cc(NC(=O)C(F)(F)F)ccc1-2	39
c1ccc2c(c1)c1ncccc1c1nccnc21	12
C=C1CC(Cn2cc(Br)c(=O)[nH]c2=O)(c2ccc(-c3ccccc3)cc2)OC1=O (stereo unspecified)	26
Cn1c(=O)c(-c2ccccc2)c(N=[N+]=[N-])c2ccccc21	91

The reported growth inhibition of the compound "CCC(=O)Oc1c(Cl)cc(Cl)c2ccccc12" was -6

Entry "COC(=O)c1cc(-c2ccc(C)cc2)[nH]c(=O)c1C#N" ; growth inhibition = -1

Consider CC(C)(CN1CCCCC1)C(=O)CC(SCCS(=O)(=O)O)c1ccc(Br)cc1 (stereo unspecified) . Its measured growth inhibition is 11

Entry "CCCS(=O)(=O)Nc1ccc(Nc2c3ccccc3nc3ccccc23)c(OC)c1" ; growth inhibition = -35

Kindly note the recorded growth inhibition for "C/C(=N\NC(=S)N1CCCCC1)c1cccc(C)n1" , which is 99

---

- test.name: NCI Yeast Anticancer Drug Screen. Data for the wt2 strain (AID 169);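 further: 0% = growth of vehicle-treated yeast cultures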
- settings: S. cerevisiae wt2 strain growth inhibition; at 11.0 µM; stronger effect = higher value
About 79,000 compounds went through this panel and 15% of them were active in at least one assay; those are over-represented in the sample as a whole.
assay.endpoint: growth inhibition (%)
Respond with the bare value in %.

Please review the entries below; each comes with its answer.
compound	measurement.units	growth inhibition
O=C([O][Sn]([O]C(=O)c1ccccc1)([c]1ccccc1)[c]1ccccc1)c1ccccc1	%	20
O=C1C=CC(=O)N1c1ccc2c(c1)Cc1cc(NC(=O)C(F)(F)F)ccc1-2	%	37

Looking up "CNC(=O)OCc1c(COC(=O)NC)c(-c2ccc(-c3ccccc3)cc2)n(C)c1C" , I found its growth inhibition recorded as -15

Input "Cc1cc(O)cc(O)c1N=Nc1ccc([N+](=O)[O-])cc1" . Output growth inhibition: -4

Reported growth inhibition ( "FC(F)(F)c1nc2nc(Cl)c(Cl)nc2n1CCCN1CCOCC1" ) = 13

According to the records, this compound "Cn1c2ccccc2c(=O)c2cc(NC(=O)CCCCC(=O)Nc3ccc4c(c3)c(=O)c3ccccc3n4C)ccc21" displays growth inhibition of -1

Consider COC(=O)C1=C(C)NC(C)=C(C(=O)OCCCN2CCC(c3ccccc3)(c3ccccc3)CC2)C1c1cccc([N+](=O)[O-])c1 (centres undefined) . Its measured growth inhibition is 98

Input "COc1ccc(/C=C2\SC(=S)N(/C=C/c3nc4ccccc4[nH]c3=O)C2=O)cc1OC" . Output growth inhibition: 28

For "O=C1Nc2ccc(Cl)c(I)c2C1=O" the compound record lists growth inhibition as 3

---

// growth inhibition lookup, one value per entry
- test.name: NCI Yeast Anticancer Drug Screen. Data for the bub3 strain (AID 167)
- settings: S. cerevisiae bub3 mutant strain, at 11.0 µM, stronger effect = higher value
The panel holds about 79,000 compounds, 15% with a hit somewhere; the sample as a whole holds those more often.
Field: numeric (%). Do not append units.

The examples below pair each entry with its known result.
compound	measurement
O=C1C=CC(=C(c2ccccc2)c2ccccc2)c2ccccc21	3
CC(=O)ON1C(=O)c2cccc3cccc(c23)C1=O	24
C/C(=N\O)C1CC2C=C(C#N)C1N(Cc1ccccc1)C2 (stereo unspecified)	-3

growth inhibition in this record for "COc1ccc(Br)c(C(=O)Sc2nnnn2-c2cccc(Cl)c2)c1" : -22

For this compound ( COc1cc(C2SCC(=O)N2c2nnc(C(F)(F)F)s2)cc(OC)c1OC (stereo unspecified) ), measured growth inhibition is 28

The compound listed as "Oc1ccc2ccccc2c1C(c1ccc(Cl)cc1)c1c(O)ccc2ccccc12" shows growth inhibition equal to -1

---

- test.name: NCI Yeast Anticancer Drug Screen. Data for the bub3 strain (AID 167)
- settings: S. cerevisiae bub3 mutant strain, at 33.0 µM
The panel holds about 79,000 compounds, 15% with a hit somewhere; the sample as a whole holds those more often. Activity calls are given as the source filed them. Cut-off read from the data, not from the text of the source: active = growth inhibition above about 70%; inactive = the rest.
# valid calls are TRUE for active, FALSE for inactive; nothing else

Previously resolved entries follow.
compound	group
COc1cc2c(cc1[N+](=O)[O-])C(=O)C(Br)(Br)CCC2	TRUE
O=C(NC(Nc1ccc(F)c(Cl)c1)(C(F)(F)F)C(F)(F)F)C(C(F)(F)F)C(F)(F)F	TRUE
Cc1ccc(CSC(N)=Nc2ccccc2)cc1C	FALSE
CNC(=O)OCc1c(COC(=O)NC)c(-c2ccc(-c3ccccc3)cc2)n(C)c1C	FALSE
COc1cc(CC2CC(c3ccc4c(c3)OCO4)OC2=O)cc(OC)c1OC (centres undefined)	FALSE
CCOC(=O)c1cnc2cc(C(F)(F)F)ccc2c1N=[N+]=[N-]	FALSE
c1ccc2c(c1)c1ncccc1c1nccnc21	FALSE
O=C1C=CC(=Nc2ccc3c(c2)Cc2cc(NC(=O)C(F)(F)F)ccc2-3)O1	FALSE
O=[N+]([O-])/C=C/c1ccc2ccccc2c1	TRUE
CC(C)C1=CC2=C[C@H](O)[C@H]3C(C)(C)CCC[C@]3(C)C2=C(O)C1=O	TRUE

Each compound tested received a call. Report the one for "COc1cccc2nc3ccccc3nc12" .
FALSE

Test call for this compound, please: O=C(O)C1OC1(c1cccc(Cl)c1)c1ccccc1Cl (centres undefined)
TRUE

Dear colleague, could you share the recorded outcome for "Brc1ccc(-c2cc3c(cc2C2SCCS2)OCO3)cc1" when you have a moment?
FALSE

What call does the record list for "Cc1ccc(S(=O)(=O)Oc2cc(Cl)c(Cl)cc2Cl)cc1" ?
FALSE

Could you kindly confirm the outcome this assay logged for "O=C(NCCCCCCCN1CCCCCCC1)C(C1CCCCC1)C1CCCCC1" ?
TRUE

Lab log entry: "NNc1c(F)c(F)cc(F)c1F" — outcome as called in the assay?
FALSE

# fetch the recorded call for "C[Si](C)(C)CNC(=O)OCc1ccccc1" here
TRUE

---

- test.name: NCI Yeast Anticancer Drug Screen. Data for the mgt1 strain (AID 153)
- settings: S. cerevisiae mgt1 mutant growth inhibition; at 11.0 µM; stronger effect = higher value
Compounds without any hit were thinned out: in the full panel of roughly 79,000, 15% have a hit.
assay.endpoint: growth inhibition (%)
Please respond with the number in % and leave the unit unwritten.

Some molecules with recorded growth inhibition:
molecule	measurement
Clc1ccccc1C1OC1c1ccccc1Cl (stereo not given)	-65
CCCS(=O)(=O)Nc1ccc(Nc2c3ccccc3nc3ccccc23)c(OC)c1	-52
O=[N+]([O-])c1cccc2nccc(NCCCO)c12	-12
O=C(O)c1ccccc1-c1ccccc1C(=O)Nc1ccc2c(c1)Cc1ccccc1-2	19
CC(CC(C)(C)[N+](C)(C)C)[N+](C)(C)C (stereo not given)	2

# growth inhibition of "O=C1c2ccccc2C(=O)c2cc(CBr)ccc21" = 4

Please fill in: growth inhibition reported for "Fc1ccc(NC(=S)SCc2ccc(Cl)c(Cl)c2)cc1F" = 0

// growth inhibition value for "O=CNc1ccc2c(c1)C(=O)c1ccccc1-2" : 9

// sample "COC(=O)CCNc1c2ccccc2nc2cccc([N+](=O)[O-])c12" , its growth inhibition was 87

The value of growth inhibition measured for the molecule "CCCCCCCCNC(=O)C1=C(C)NC(C)=C(C(=O)NCCCCCCCC)C1" turned out to be 1

Sure, the documented growth inhibition for "N#CN=Nc1cc(Cl)c(N=NC#N)cc1Cl" is -6

"N#CSc1ccc(S(N)(=O)=O)cc1" yielded growth inhibition of -44

Notebook: "O=[N+]([O-])c1cccc2nc3ccccc3c(NCCCN3CCOCC3)c12" , growth inhibition read as 91

Record "COc1ccc(NC(=S)N/N=C(\c2ccccc2)c2ccccn2)cc1" . Reported growth inhibition: 8

Entry "CCC/C(Cl)=N\OC(=O)Nc1ccc(Br)cc1" , growth inhibition reported as 82

// growth inhibition value for "O=C(CCCN1CCC2(CC1)CC(=O)N(N1CCCCCC1)C2=O)c1ccc(F)cc1" : 67

// recorded growth inhibition for "CCC(=O)c1cccc2ccccc12" : 0

The molecule identified as "S=c1[nH]nc(Nc2ccc(Cl)cc2)s1" registered its growth inhibition at -2

Entry "CN(C)Cc1cc(N=Nc2ccc(Cl)cc2)cc(CN(C)C)c1O" ; growth inhibition = 13

Value of measured growth inhibition for the entry "CC1CCN(CCC(=O)c2ccc(Cl)cc2)CC1" : 20

---

growth inhibition for assorted compounds
- test.name: NCI Yeast Anticancer Drug Screen. Data for the CLN2oe strain (AID 163);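 further: 0% = growth of vehicle-only control cultures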
- settings: S. cerevisiae CLN2oe strain, at 11.0 µM, stronger effect = higher value
This is part of a sample that, as a whole, favours compounds with a hit. Of some 79,000 tested, about 15% had one in any assay.
Hi! Could you send only the number? It should be in %, unit omitted.

Below are worked cases with known answers.
compound	measurement.units	measurement
COC(=O)c1ccc(CCC2=CC(=O)C(Br)=CC2=O)cc1	%	10
Cc1c(C(Cc2ccccc2N(C)C(=O)/C=C\C(=O)O)c2c[nH]c3ccccc23)c2ccccc2n1C (stereo unspecified)	%	-9
O=C1OC(CCl)CN1/N=C/c1ccc([N+](=O)[O-])o1 (stereo unspecified)	%	-6
C#CCCCc1ccccc1	%	4

Looking up "CCCCCCCCCC/C=C\C(=O)O" , I see its growth inhibition listed as 7

Quick note, growth inhibition for CCCCCCCCCCCCCCC(C(=O)[O-])[n+]1ccccc1 (stereo unspecified) landed at 3

Value of growth inhibition reported for the compound "COC(=O)CCNc1c2ccccc2nc2cccc([N+](=O)[O-])c12" is 89

The compound "Cn1c2ccccc2c(=O)c2cc(NC(=O)CCCCC(=O)Nc3ccc4c(c3)c(=O)c3ccccc3n4C)ccc21" showed growth inhibition equal to -8

Consider O=[N+]([O-])c1ccc2c(c1)C(N1CCN(CCO)CC1)Cc1ccc(F)cc1S2 (stereo unspecified) . Its measured growth inhibition is 0

Reported growth inhibition of "O=C(Nc1ccc(Cl)cc1)OCC#CCCl" : -3

Noted for "CCN(CC)CCNc1ccc([N+](=O)[O-])c2nc3ccc(OC)cc3c(N)c12" : its growth inhibition reads 22
